These entries and their values trace back to patent US12459952B2.

Biological target: Human TREM2 (Homo sapiens)
Construct: expressed in transfected cells
Experiment: Human TREM2 cellular phospho-Syk AlphaLISA assay in HEK293/DAP12+TREM2 stable cell line
Format: cell-based
Settings: maximal response relative to the maximal response of the reference agonist; phospho-Syk AlphaLISA, HEK293/DAP12+TREM2 cells
MEASUREMENT_LABEL: Emax

{"CHEMICAL_STRUCTURE": "CCc1nnc(OC2CN(c3nc(-c4ccc(C#N)cc4F)c4nc(C(F)(F)F)n(C)c(=O)c4n3)C2)s1", "Emax": "75 to 110%"}
{"CHEMICAL_STRUCTURE": "COc1ccc(-c2nc(N3CC(Oc4cnn(C5CC5)c4)C3)nc3c(=O)n(C)c(C(F)(F)F)nc23)cn1", "Emax": "75 to 110%"}
{"CHEMICAL_STRUCTURE": "Cn1c(C(F)(F)F)nc2c(-c3ccc(C#N)cc3F)nc(N3CC(Oc4cncnc4)C3)nc2c1=O", "Emax": "< 75%"}
{"CHEMICAL_STRUCTURE": "COc1ccc(-c2nc(N3CC(Oc4cnn(C5CC5)c4)C3)nc3c(=O)n(C)c(C(F)(F)F)nc23)c(F)c1", "Emax": "< 75%"}
{"CHEMICAL_STRUCTURE": "Cn1c(C(F)(F)F)nc2c(-c3ccc(C#N)nc3)nc(N3CC(Oc4cnn(C5CC5)c4)C3)nc2c1=O", "Emax": "75 to 110%"}
{"CHEMICAL_STRUCTURE": "Cc1ncc(OC2CN(c3nc(-c4ccc(C#N)cc4F)c4nc(C(F)(F)F)n(C)c(=O)c4n3)C2)cn1", "Emax": "< 75%"}
{"CHEMICAL_STRUCTURE": "Cn1ncc(OC2CN(c3nc(-c4ccc(C#N)cc4F)c4nc(C(F)(F)F)n(C)c(=O)c4n3)C2)c1Cl", "Emax": "75 to 110%"}
{"CHEMICAL_STRUCTURE": "Cn1c(C(F)(F)F)nc2c(-c3ccc(C#N)cc3F)nc(N3CC(Oc4cnn(CC(F)(F)F)c4)C3)nc2c1=O", "Emax": "75 to 110%"}
{"CHEMICAL_STRUCTURE": "Cn1c(C(F)(F)F)nc2c(-c3ccc(C#N)cc3F)nc(N3CC(Oc4cnn(C5CC5)c4)C3)cc2c1=O", "Emax": "75 to 110%"}
{"CHEMICAL_STRUCTURE": "CN(c1cnn(C2CC2)c1)C1CN(c2nc(-c3ccc(F)cc3F)c3nc(C(F)(F)F)n(C)c(=O)c3n2)C1", "Emax": "75 to 110%"}

Query: Entry under review: `Cc1nn(C)cc1OC1CN(c2nc(-c3ccc(C#N)cc3F)c3nc(C(F)(F)F)n(C)c(=O)c3n2)C1` . Reported Emax?
Result: < 75%

Query: Can you check `Cc1n[nH]c(C)c1OC1CN(c2nc(-c3ccc(C#N)cc3F)c3nc(C(F)(F)F)n(C)c(=O)c3n2)C1` next?
Result: 75 to 110%

Query: How about this compound: `Cn1c(C(F)(F)F)nc2c(-c3ccc(C#N)cc3F)nc(N3CC(Oc4ccnc(C(F)(F)F)c4)C3)nc2c1=O`
Result: 75 to 110%

Query: // next record `CC(C)n1cc(OC2CN(c3nc(-c4ccc(C#N)cc4F)c4nc(C(F)(F)F)n(C)c(=O)c4n3)C2)cn1`
Result: 75 to 110%

Query: Next compound: `COc1cc(OC2CN(c3nc(-c4ccc(C#N)cc4F)c4nc(C(F)(F)F)n(C)c(=O)c4n3)C2)ccn1`
Result: 75 to 110%

Query: Thanks! And `Cc1nnc(OC2CN(c3nc(-c4ccc(C#N)cc4F)c4nc(C(F)(F)F)n(C)c(=O)c4n3)C2)s1` ?
Result: < 75%

Query: Param item: `Cc1cc(OC2CN(c3nc(-c4ccc(F)cc4F)c4nc(C(F)(F)F)n(C)c(=O)c4n3)C2)ccn1`
Result: 75 to 110%

Query: Ok, now `Cn1c(C(F)(F)F)nc2c(-c3ccc(C#N)cc3F)nc(N3CC(Oc4cnn(C(F)F)c4)C3)nc2c1=O`
Result: 75 to 110%

====

Recorded Emax values for a group of molecules are listed next.
Target: Human TREM2 (Homo sapiens, UniProt Q9NZC2)
Construct: expressed in transfected cells
Sequence (Q9NZC2 19-230): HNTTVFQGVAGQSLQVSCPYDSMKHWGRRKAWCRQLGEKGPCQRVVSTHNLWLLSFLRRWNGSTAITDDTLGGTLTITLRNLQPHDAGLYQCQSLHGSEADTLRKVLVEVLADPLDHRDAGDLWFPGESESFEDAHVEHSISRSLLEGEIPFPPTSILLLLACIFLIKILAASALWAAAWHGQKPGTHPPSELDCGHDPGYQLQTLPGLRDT
Sequence (O43914 22-113 partner): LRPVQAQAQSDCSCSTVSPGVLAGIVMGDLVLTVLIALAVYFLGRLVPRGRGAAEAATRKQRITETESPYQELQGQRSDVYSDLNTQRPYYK
Test: Human TREM2 cellular phospho-Syk AlphaLISA assay in HEK293/DAP12+TREM2 stable cell line
Assay type: cell-based
Conditions: maximal response relative to the maximal response of the reference agonist; phospho-Syk AlphaLISA, HEK293/DAP12+TREM2 cells

Sample records with Emax:
{"CHEMICAL_STRUCTURE": "Cn1c(C(F)(F)F)nc2c(-c3ccc(C#N)cc3)nc(N3CC(Oc4cnn(C5CC5)c4)C3)nc2c1=O", "Emax": "75 to 110%"}
{"CHEMICAL_STRUCTURE": "Cn1c(C(F)(F)F)nc2c(-c3ccc(C#N)cc3F)nc(N3CC(Oc4cnc(C#N)cn4)C3)nc2c1=O", "Emax": "< 75%"}

Query: What value of Emax has been recorded for this entry: `Cn1c(C(F)(F)F)nc2c(-c3ccc(F)cc3F)nc(N3CC(Cc4cnn(C5CC5)c4)C3)nc2c1=O`
Result: 75 to 110%

Query: What about `Cn1c(C(F)(F)F)nc2c(-c3ccc(C#N)cc3F)nc(N3CC(Oc4ccnc(C5CC5)c4)C3)nc2c1=O` ?
Result: 75 to 110%
